Sourced from the supplement of paper PMC10126150

Tested on: ATP;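 further: ATP exposure 15 min at 22 °C before imaging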
testSummary: switch fluorescence ratio, 500 uM ATP over buffer (Cy3 cluster intensity, sum of 5 cycles each) (fold (ratio)); higher = stronger signal-on switching upon ATP binding; sequences stand for … in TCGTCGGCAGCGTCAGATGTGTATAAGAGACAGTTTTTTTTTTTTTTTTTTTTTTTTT…TC
testSettings: aptamer strand: ATP DNA aptamer (quencher-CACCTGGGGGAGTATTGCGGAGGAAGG + anchor), 100 nM annealed; ATP concentration: 500 uM
Classification field: enter yes for switch fluorescence ratio values not below 1, no for values below it.

{"orderedResidues": "GTGGGGGTAT", "group": "yes"}

Problem: Hi team, for GATTTAGGGG , is the recorded switch fluorescence ratio at or above 1?
Result: no

Problem: Thanks! And TTATTATGTG ?
Result: no

Problem: Thanks! And CGAGACGTAT ?
Result: yes

Problem: Thanks! And AATGTCGCGC ?
Result: no

Problem: Thanks! And CGGGCAAGGG ?
Result: yes

###

Would you mind telling me the reported switch fluorescence ratio of each entry?
System: ATP;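 further: ATP exposure 15 min at 22 °C before imaging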
testSummary: switch fluorescence ratio, 500 uM ATP over buffer (Cy3 cluster intensity, sum of 5 cycles each) (fold (ratio)); higher = stronger signal-on switching upon ATP binding; sequences stand for … in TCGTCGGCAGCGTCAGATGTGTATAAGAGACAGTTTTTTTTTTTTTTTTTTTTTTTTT…TC
testSettings: aptamer strand: ATP DNA aptamer (quencher-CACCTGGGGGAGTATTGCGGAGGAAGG + anchor), 100 nM annealed; ATP concentration: 500 uM
Answers are plain numbers.

Need switch fluorescence ratio for each of these sequences.
1. TCACATTAAG
2. ATGGCTACCG
3. GACTGGGGAC
4. AGGGGGGAAC
5. GGATTTGCCA

Result:
1.01
1.01
1.01
1.01
0.989

Need switch fluorescence ratio for each of these sequences.
1. CGTCAGCGGC
2. CGGAGGGAAA
3. GAGCCCTTAT
4. ATAGGATGAG
5. ACTGGATTGG
6. AGGCTAACGA
7. GTTTGAGTTT

Result:
1: 1.25; 2: 0.963; 3: 0.981; 4: 1.02; 5: 1.01; 6: 1.02; 7: 0.996

Need switch fluorescence ratio for each of these sequences.
1. CCTGGGTTAT
2. ACCTAGTGTG
3. ATCGAGGTCC
4. TTCGAGTCGT
5. AGTGATTCGT
6. GTTACTTGCC
7. GGTCTGATGG

Result:
1.02
1.14
1.01
1.01
1.01
0.992
0.987

Need switch fluorescence ratio for each of these sequences.
1. GGGGTTATTC
2. TTTGGGATGC
3. GTCGGTTTTT
4. CCGGCTTGCA
5. GCTTTGTACG

Result:
1: 0.986; 2: 1.07; 3: 0.972; 4: 1.13; 5: 1.04

###

Would you mind telling me the reported switch fluorescence ratio of each entry?
Test system: ATP;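 further: ATP exposure 15 min at 22 °C before imaging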
testSummary: switch fluorescence ratio, 500 uM ATP over buffer (Cy3 cluster intensity, sum of 5 cycles each) (fold (ratio)); higher = stronger signal-on switching upon ATP binding; sequences stand for … in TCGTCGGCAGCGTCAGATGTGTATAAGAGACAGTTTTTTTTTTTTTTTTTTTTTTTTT…TC
testSettings: aptamer strand: ATP DNA aptamer (quencher-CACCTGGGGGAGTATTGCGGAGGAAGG + anchor), 100 nM annealed; ATP concentration: 500 uM
Give bare numbers.

{"orderedResidues": "ATCAGATTTT", "measuredParameter": "switch fluorescence ratio", "readoutValue": 0.987}
{"orderedResidues": "CCATGCGATG", "measuredParameter": "switch fluorescence ratio", "readoutValue": 1.21}
{"orderedResidues": "GGGATTGAGG", "measuredParameter": "switch fluorescence ratio", "readoutValue": 1.01}
{"orderedResidues": "AATAAAGGGT", "measuredParameter": "switch fluorescence ratio", "readoutValue": 1.02}
{"orderedResidues": "AAAGGCGCTG", "measuredParameter": "switch fluorescence ratio", "readoutValue": 0.984}
{"orderedResidues": "AGTAAAATGG", "measuredParameter": "switch fluorescence ratio", "readoutValue": 1.01}
{"orderedResidues": "TGGGCAGATG", "measuredParameter": "switch fluorescence ratio", "readoutValue": 0.989}
{"orderedResidues": "AATTTTTTT", "measuredParameter": "switch fluorescence ratio", "readoutValue": 0.992}
{"orderedResidues": "AGTCTACTAT", "measuredParameter": "switch fluorescence ratio", "readoutValue": 1}
{"orderedResidues": "GGCGGCCGGA", "measuredParameter": "switch fluorescence ratio", "readoutValue": 1}

Need switch fluorescence ratio for each of these sequences.
1. GGGGTGTAGA
2. TTTTGCGGGT
3. GAGTGTGTGT
4. CGTGGGGCGA
5. TTATGCTATG
6. ATACTTTATT
7. GTTCACGGGA
8. CCTCGGTATG

Result:
1. 1.02
2. 0.983
3. 1.01
4. 1.03
5. 1.05
6. 1.09
7. 1
8. 1.24

###

Would you mind telling me the reported switch fluorescence ratio of each entry?
System: ATP;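 further: ATP exposure 15 min at 22 °C before imaging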
testSummary: switch fluorescence ratio, 500 uM ATP over buffer (Cy3 cluster intensity, sum of 5 cycles each) (fold (ratio)); higher = stronger signal-on switching upon ATP binding; sequences stand for … in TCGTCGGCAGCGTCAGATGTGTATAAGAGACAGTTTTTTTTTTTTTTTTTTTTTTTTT…TC
testSettings: aptamer strand: ATP DNA aptamer (quencher-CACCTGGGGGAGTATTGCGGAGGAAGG + anchor), 100 nM annealed; ATP concentration: 500 uM
Give bare numbers.

{"orderedResidues": "ATAAAGTTGG", "measuredOn": "ATP", "readoutValue": 0.991}
{"orderedResidues": "GGGGTAGCGA", "measuredOn": "ATP", "readoutValue": 0.992}
{"orderedResidues": "ATTAAATATC", "measuredOn": "ATP", "readoutValue": 1.03}
{"orderedResidues": "GAGGGGAACC", "measuredOn": "ATP", "readoutValue": 0.992}
{"orderedResidues": "AGAAGGGGAC", "measuredOn": "ATP", "readoutValue": 1.02}
{"orderedResidues": "AGGGGAGTTC", "measuredOn": "ATP", "readoutValue": 1.04}

Need switch fluorescence ratio for each of these sequences.
1. TCATCTACAG
2. AGCTATAAGG
3. CGGCAGCGAG
4. TATGTTATAT
5. CAGTGAAAAA
6. CGGGTAATCT

Result:
1: 1.02; 2: 0.982; 3: 1.08; 4: 0.991; 5: 1.06; 6: 1.5

###

Tested on: ATP;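 further: ATP exposure 15 min at 22 °C before imaging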
testSummary: switch fluorescence ratio, 500 uM ATP over buffer (Cy3 cluster intensity, sum of 5 cycles each) (fold (ratio)); higher = stronger signal-on switching upon ATP binding; sequences stand for … in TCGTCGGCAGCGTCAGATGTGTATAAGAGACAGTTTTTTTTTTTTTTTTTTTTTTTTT…TC
testSettings: aptamer strand: ATP DNA aptamer (quencher-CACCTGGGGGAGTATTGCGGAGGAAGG + anchor), 100 nM annealed; ATP concentration: 500 uM
Would you mind telling me the reported switch fluorescence ratio of each entry?
Answers are plain numbers.

Observe how each entry below is paired with its result.
{"orderedResidues": "TTGAATGGGG", "switch fluorescence ratio": 1.05}
{"orderedResidues": "AAGAATCAGA", "switch fluorescence ratio": 0.98}
{"orderedResidues": "CGTAGAGGAA", "switch fluorescence ratio": 0.994}
{"orderedResidues": "ACACGGTCTA", "switch fluorescence ratio": 1.01}
{"orderedResidues": "TACTGGGACG", "switch fluorescence ratio": 1}

Need switch fluorescence ratio for each of these sequences.
1. TTTGGATGGG
2. AGAGTTTTTA
3. TTCCTAAAGA
4. GCGTGCGGGG
5. TTTTGGTCAA
6. GTTGGGTAGG
7. AGTGTGTTTT

Result:
0.994
1.01
1.06
1.03
1.02
0.963
0.996

Need switch fluorescence ratio for each of these sequences.
1. GGGGTATTGA
2. TAACAGAGGT
3. GTGGGTGGGT
4. TCGGTTGGGA

Result:
1.03
1.01
1
0.986

###

Tested on: ATP;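 further: ATP exposure 15 min at 22 °C before imaging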
testSummary: switch fluorescence ratio, 500 uM ATP over buffer (Cy3 cluster intensity, sum of 5 cycles each) (fold (ratio)); higher = stronger signal-on switching upon ATP binding; sequences stand for … in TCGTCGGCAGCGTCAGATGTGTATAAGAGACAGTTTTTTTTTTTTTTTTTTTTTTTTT…TC
testSettings: aptamer strand: ATP DNA aptamer (quencher-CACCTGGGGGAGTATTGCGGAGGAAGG + anchor), 100 nM annealed; ATP concentration: 500 uM
Would you mind telling me the reported switch fluorescence ratio of each entry?
Numbers only.

Observe how each entry below is paired with its result.
{"orderedResidues": "GGGGGTGACA", "switch fluorescence ratio": 0.993}
{"orderedResidues": "ACCCTGTGTA", "switch fluorescence ratio": 1}
{"orderedResidues": "TTTTAAAGAT", "switch fluorescence ratio": 0.977}

Need switch fluorescence ratio for each of these sequences.
1. GAGGCTTCTA
2. TCTTTTAAGT
3. GGGGACTGTA
4. AAAGAATTTT
5. GGTTAACTGG

Result:
1.02
0.97
1.04
1
0.991

Need switch fluorescence ratio for each of these sequences.
1. TTAAGGAATT
2. TAGTATTCTG

Result:
1: 0.999; 2: 0.986

Need switch fluorescence ratio for each of these sequences.
1. GAAAAAGTGA
2. AATGTTTTGT
3. TATGGGGGTA
4. AAGGGTCGCG
5. CTCTAGCTTT
6. ACGTCCGATC
7. GCTTGTTTGT

Result:
1. 0.975
2. 0.994
3. 1.01
4. 1.02
5. 1.09
6. 1.11
7. 1.02

Need switch fluorescence ratio for each of these sequences.
1. CACGGGGTAC
2. CGTACTGGAG
3. TTGCTTACGG
4. AAAAAGGGTG
5. AGAATTAGAG
6. GTTGGATTTG

Result:
1. 1.34
2. 1.01
3. 1.02
4. 1
5. 0.969
6. 0.994
